Origin of the recorded values: PubChem BioAssay (NCI)

tested on: OVCAR-5 ovarian; assay: NCI tumour cell line growth inhibition, 48 h

>  <Compound>
CO/C(=N\N=C\c1cccc(Cl)c1)c1ccncc1

>  <TGI>
> 10 µM

$$$$
>  <Compound>
CCOC(=O)c1c(CN2CCNCC2)nc2ccccc2c1-c1ccccc1

>  <TGI>
31.1 µM

$$$$
>  <Compound>
C=CC1[C@H]2COC(C)(C)O[C@@H]2CC(=O)C1(C)C (stereo partly specified)

>  <TGI>
> 100 µM

$$$$
>  <Compound>
CCN(CC)CCNc1ccc([N+](=O)[O-])c2sc3ccccc3c(=O)c12

>  <TGI>
15.2 µM

$$$$
>  <Compound>
C/C(=N\NC(=S)N1CCCCC1)c1cccc(C)n1

>  <TGI>
21.1 µM

$$$$
>  <Compound>
C/C=C\C(CC(=O)NCCc1cn(C(=O)OCc2ccccc2)c2ccccc12)CC(=O)OC (stereo unspecified)

>  <TGI>
> 100 µM

$$$$
>  <Compound>
CCCCS(=O)CCC(N)C(=O)O (stereo unspecified)

>  <TGI>
> 100 µM

$$$$
>  <Compound>
Nc1ncnc2c1ncn2C1CCC(COS(N)(=O)=O)C1 (stereo unspecified)

>  <TGI>
> 100 µM

$$$$
>  <Compound>
CSC(CC(=O)O)C(=O)O (stereo unspecified)

>  <TGI>
> 100 µM

$$$$
>  <Compound>
CN1CCN(c2ccc(NC(=O)c3nc4ccc5[nH]ncc5c4c4c3CCCC4)cc2C(F)(F)F)CC1

>  <TGI>
8.39 µM

$$$$
>  <Compound>
COc1ccccc1N=C(N)N/N=C/c1c[nH]c2ccccc12

>  <TGI>
26.9 µM

$$$$
>  <Compound>
C=C(CCCCCCCCC)CC(=O)SCCNC(=O)CCNC(=O)C(O)C(C)(C)COP(=O)(O)OP(=O)(O)OCC1OC(n2cnc3c(N)ncnc32)C(O)C1OP(=O)(O)O (stereo unspecified)

>  <TGI>
> 100 µM

$$$$
>  <Compound>
COc1ccc(-c2oc3c(OC)c(OC)c(OC)c(O)c3c(=O)c2OC)cc1OC

>  <TGI>
> 100 µM

$$$$
>  <Compound>
Cc1ccncc1.F[B-](F)(F)F.[Pt+2].c1ccc(-c2cccc(-c3ccccn3)n2)nc1

>  <TGI>
41.4 µM

$$$$
>  <Compound>
NCCCOCC(=O)O

>  <TGI>
> 100 µM

$$$$
>  <Compound>
CC1OC(OCC2OC(Oc3c(-c4ccc(O)cc4)oc4cc(O)cc(O)c4c3=O)C(OC3OC(C)C(O)C(O)C3O)C(O)C2O)C(O)C(O)C1O (stereo unspecified)

>  <TGI>
> 100 µM

$$$$
>  <Compound>
COc1nc2c(c(=O)n1C)N[C@H]1[C@H](OC(C)=O)[C@@H](OC(C)=O)CO[C@H]1N2

>  <TGI>
> 100 µM

$$$$
>  <Compound>
CCOC(=O)C1(C(=O)OCC)[C@H](c2ccccc2)C2=NO[C@@H]3CCC[C@H]1[C@H]23

>  <TGI>
> 100 µM

$$$$
>  <Compound>
C/C(=C\c1ccccn1)c1ccccn1

>  <TGI>
> 100 µM

$$$$
>  <Compound>
O=c1[nH]c(=O)n([C@@H]2C[C@H](CO)[C@H](O)C2)cc1/C=C/Br

>  <TGI>
> 100 µM

$$$$
>  <Compound>
CN(C)c1ccc([O-])cc1.CN(C)c1ccc([O-])cc1.CN(C)c1ccc([O-])cc1.CN(C)c1ccc([O-])cc1.[Ti+4]

>  <TGI>
> 100 µM

$$$$

====

test system: SR leukemia; test: NCI tumour cell line growth inhibition, 48 h
Property Label: TGI

>  <Compound>
Cc1cc(C)c(P2C(=C(O[Si](C(C)C)(C(C)C)C(C)C)C(C)(C)C)C2(c2ccccc2)c2ccccc2)c(C)c1 (configuration not stated)

>  <Property Label>
TGI

>  <Endpoint Value>
> 100 µM

$$$$
>  <Compound>
NC1CCCCC1.[O]=[Ge].[O]=[Ge].[O]=[Ge][OH].[O]=[Ge][OH]

>  <Property Label>
TGI

>  <Endpoint Value>
> 100 µM

$$$$
>  <Compound>
CCCn1c(SC)nc(COC(=O)NC)c1COC(=O)NC

>  <Property Label>
TGI

>  <Endpoint Value>
> 100 µM

$$$$
>  <Compound>
O=C(NCc1cccc(C(F)(F)F)c1)c1cc2sccc2nc1C(F)(F)F

>  <Property Label>
TGI

>  <Endpoint Value>
> 100 µM

$$$$
>  <Compound>
O=C1C=C(NCCNC(=S)Nc2ccccc2)c2nccc3c2c1nc1ccccc13

>  <Property Label>
TGI

>  <Endpoint Value>
> 100 µM

$$$$
>  <Compound>
Cc1nc2c3c(ncn2n1)Oc1c(c(-c2ccccc2)nn1-c1ccccc1)C3c1ccc(Cl)cc1 (configuration not stated)

>  <Property Label>
TGI

>  <Endpoint Value>
> 100 µM

$$$$
>  <Compound>
O=C(Nc1cccs1)c1c(O)[nH]c(=S)[nH]c1=O

>  <Property Label>
TGI

>  <Endpoint Value>
> 100 µM

$$$$
>  <Compound>
O=C(O)C1C2CCC(O2)C1C(=O)N1CCCCC1 (configuration not stated)

>  <Property Label>
TGI

>  <Endpoint Value>
14.2 µM

$$$$
>  <Compound>
COc1ccccc1/C=C/[N+](=O)[O-]

>  <Property Label>
TGI

>  <Endpoint Value>
5.02 µM

$$$$
>  <Compound>
N/N=C1/C2CN3CCN(C2)CC1(c1ccc([N+](=O)[O-])cc1)C3

>  <Property Label>
TGI

>  <Endpoint Value>
> 100 µM

$$$$
>  <Compound>
O=[N+]([O-])c1ccc2nc(-c3ccccn3)c(-c3ccccn3)nc2c1

>  <Property Label>
TGI

>  <Endpoint Value>
> 100 µM

$$$$
>  <Compound>
CSC(CC(=O)O)C(=O)O (configuration not stated)

>  <Property Label>
TGI

>  <Endpoint Value>
> 100 µM

$$$$
>  <Compound>
O=C(CCN1CCCC1)Nc1ccc2sc3ccccc3c(=O)c2n1

>  <Property Label>
TGI

>  <Endpoint Value>
23.7 µM

$$$$
>  <Compound>
O=C(Nc1ccc(F)cc1)c1ccc(NC2=C(Cl)C(=O)N(Cc3ccccc3)C2=O)cc1

>  <Property Label>
TGI

>  <Endpoint Value>
2.54 µM

$$$$
>  <Compound>
c1ccc(CCNCc2ccco2)nc1

>  <Property Label>
TGI

>  <Endpoint Value>
> 100 µM

$$$$
>  <Compound>
COc1ccc(C2SCC(=O)N2NC(=O)C(O)c2ccccc2)cc1OC (configuration not stated)

>  <Property Label>
TGI

>  <Endpoint Value>
> 100 µM

$$$$
>  <Compound>
COC1=CC(=O)C2C(C1=O)[C@@H]1c3ccccc3C[C@H]21 (some centres not stated)

>  <Property Label>
TGI

>  <Endpoint Value>
> 100 µM

$$$$
>  <Compound>
O=[N+]([O-])c1c(Br)cc(Br)c2c1Nc1c(ccc(Cl)c1Cl)S2

>  <Property Label>
TGI

>  <Endpoint Value>
> 26.8 µM

$$$$
>  <Compound>
Cn1nc2n(c1=O)CCCN2

>  <Property Label>
TGI

>  <Endpoint Value>
> 100 µM

$$$$
>  <Compound>
COc1ccc(/C=c2\[nH]c3nc(=O)c(N4CCOCC4)c(N)n3c2=O)cc1

>  <Property Label>
TGI

>  <Endpoint Value>
> 100 µM

$$$$
>  <Compound>
COc1cc2c(c(OC)c1OC)-c1ccc(N)c(=O)cc1[C@@H](NC(C)=O)CC2

>  <Property Label>
TGI

>  <Endpoint Value>
> 100 µM

$$$$
>  <Compound>
CCC(=O)O[C@H]1CC[C@H]2[C@@H]3CC[C@H]4CC(=O)[C@H](C)C[C@]4(C)[C@H]3CC[C@]12C

>  <Property Label>
TGI

>  <Endpoint Value>
21.8 µM

$$$$
>  <Compound>
O=C1C(c2c[nH]c3ccccc23)=C(c2c[nH]c3ccccc23)C(=O)N1O

>  <Property Label>
TGI

>  <Endpoint Value>
> 25 µM

$$$$
>  <Compound>
Cc1cc(/C=C\c2ccc3ccccc3[n+]2C)c(O)c2ncccc12

>  <Property Label>
TGI

>  <Endpoint Value>
> 100 µM

$$$$
>  <Compound>
O=C1NC(=O)/C(=C/c2ccc(S(=O)(=O)N/N=C/c3ccc(Cl)cc3)cc2)N1

>  <Property Label>
TGI

>  <Endpoint Value>
> 100 µM

$$$$
>  <Compound>
CCNc1ccc2c(c1)Cc1ccccc1-2

>  <Property Label>
TGI

>  <Endpoint Value>
> 100 µM

$$$$
>  <Compound>
COc1ccccc1N=C(N)N/N=C/c1c[nH]c2ccccc12

>  <Property Label>
TGI

>  <Endpoint Value>
26.9 µM

$$$$
>  <Compound>
Oc1ccc(C(c2ccc(O)cc2)c2ccc(Cl)cn2)cc1

>  <Property Label>
TGI

>  <Endpoint Value>
> 100 µM

$$$$
>  <Compound>
CCCCc1c2c(nc3c1CCc1cc4cc5c(nc4nc1-3)-c1nc3c(c(CCCC)c1CC5)CCCC3)CCCC2

>  <Property Label>
TGI

>  <Endpoint Value>
> 100 µM

$$$$
>  <Compound>
O=C1C=CC(=O)C(CNc2ccc(C(=O)OC34CC5CC(CC(C5)C3)C4)cc2)=C1

>  <Property Label>
TGI

>  <Endpoint Value>
> 29.3 µM

$$$$
>  <Compound>
CCn1c(C(=O)N(C2CC2)C2CC2)cc2c3c(ncn3C)c(Nc3cc(C)n(C)n3)nc21

>  <Property Label>
TGI

>  <Endpoint Value>
> 100 µM

$$$$
>  <Compound>
Cc1ccc(S(=O)(=O)NCCNC2=CC(=O)c3nc4ccccc4c4ccnc2c34)cc1

>  <Property Label>
TGI

>  <Endpoint Value>
> 100 µM

$$$$
>  <Compound>
CC(C)=CCC/C(C)=C/CC/C(C)=C/Cc1c(O)c2ccccc2oc1=O

>  <Property Label>
TGI

>  <Endpoint Value>
> 100 µM

$$$$
>  <Compound>
CCOC(=O)C1=C(c2ccccc2)N(C)c2ccccc2S1

>  <Property Label>
TGI

>  <Endpoint Value>
> 100 µM

$$$$
>  <Compound>
CO/C(=N\N=C\c1cccc(Cl)c1)c1ccncc1

>  <Property Label>
TGI

>  <Endpoint Value>
> 10 µM

$$$$
>  <Compound>
Cc1ccccc1-n1c(C)nc2c1C(=O)c1ccccc1C2=O

>  <Property Label>
TGI

>  <Endpoint Value>
> 100 µM

$$$$
>  <Compound>
CN1CCN(c2c(Cl)cc(Cl)c3[nH]c4ccccc4c(=O)c23)CC1

>  <Property Label>
TGI

>  <Endpoint Value>
> 100 µM

$$$$
>  <Compound>
O=C(O)[C@@H]1[C@H](C(=O)O)[C@H](C(=O)O)C[C@@H]1C(=O)O

>  <Property Label>
TGI

>  <Endpoint Value>
> 100 µM

$$$$
>  <Compound>
CCCCCCCNc1nc(C(=O)OCC)ncc1-c1ccc(C(F)(F)F)cc1

>  <Property Label>
TGI

>  <Endpoint Value>
> 100 µM

$$$$
>  <Compound>
Cc1ccc(C(=O)O)c(CC2Cc3c(C)cccc3C2=O)c1 (configuration not stated)

>  <Property Label>
TGI

>  <Endpoint Value>
> 100 µM

$$$$
>  <Compound>
C=C(CCCCCCCCC)CC(=O)SCCNC(=O)CCNC(=O)C(O)C(C)(C)COP(=O)(O)OP(=O)(O)OCC1OC(n2cnc3c(N)ncnc32)C(O)C1OP(=O)(O)O (configuration not stated)

>  <Property Label>
TGI

>  <Endpoint Value>
> 100 µM

$$$$
>  <Compound>
C[C@H](NC(=O)[C@@H]1CSSC[C@@H](NC(=O)c2nc3ccccc3cc2O)C(=O)NCC(=O)N1C)c1ccccc1

>  <Property Label>
TGI

>  <Endpoint Value>
0.877 µM

$$$$
